Consider the following compounds and their measured pEC50 readings.
- Test system: HRV16
- protocol_details: HRV16 HELA EC50 (cytopathic effect in H1-HeLa cells)
- Type: cell-based
- reported_conditions: 96 h, H1-HeLa cells, 33° C., read-out: HRV16 HELA EC50
pEC50: −log10 of the molar value.

{"compound": "C[C@H](NP(=O)(OC[C@@]1(C#N)O[C@@H](c2ccc3c(N)ncnn23)[C@H](O)[C@@H]1O)Oc1ccccc1)C(=O)OC[C@H]1CC[C@H](N)CC1 (some centres unmarked)", "inequality_symbol": "=", "pEC50": 4.55}
{"compound": "CC(C)(C)C(=O)OCCNP(=O)(NCCOC(=O)C(C)(C)C)OC[C@@]1(C#N)O[C@@H](c2ccc3c(N)ncnn23)[C@H](O)[C@@H]1O", "inequality_symbol": "<", "pEC50": 4.30}
{"compound": "CCCCCCCCCCCC(=O)OCCNP(=O)(OC[C@@]1(C#N)O[C@@H](c2ccc3c(N)ncnn23)[C@H](O)[C@@H]1O)Oc1ccccc1 (mixture of isomers)", "inequality_symbol": "=", "pEC50": 7.46}
{"compound": "CC(C)OC(=O)[C@H](C)N[P@](=O)(OC[C@@]1(C#N)O[C@@H](c2ccc3c(N)ncnn23)[C@H](OC(=O)C(C)(C)C)[C@@H]1O)Oc1ccccc1 (single isomer, unassigned)", "inequality_symbol": "=", "pEC50": 6.14}
{"compound": "C[C@H](NP(=O)(OC[C@@]1(C#N)O[C@@H](c2ccc3c(N)ncnn23)[C@H](O)[C@@H]1O)Oc1ccccc1)C(=O)OC1CCC1 (some centres unmarked) [Example 118]", "inequality_symbol": "=", "pEC50": 6.37}

====

- protocol_details: MT4 CC50 (cytotoxicity, Cell-Titer Glo)
- reported_conditions: human
recorded_metric: CC50

{"compound": "CCOC(=O)c1ccccc1OP1(=O)OC[C@@]2(C#N)O[C@@H](c3ccc4c(N)ncnn34)[C@H](OC(=O)CC)[C@@H]2O1 (stereo partly shown) [Example 230]", "recorded_metric": "CC50", "measurement": "> 50 µM"}

====

- Tested on: HCV replicon 2A
- protocol_details: HCV Rep 2A EC50 (replicon luciferase)
- Type: cell-based
- reported_conditions: Hepatitis C virus, 72 h; replicon cells, 3 days; read-out: HCV Rep 2A EC50
# EC50 annotations

{"structure_string": "CCCCCCCCCCCCCCCCCCOC[C@H](COP(=O)(O)OC[C@@]1(C#N)O[C@@H](c2ccc3c(N)ncnn23)[C@H](O)[C@@H]1O)OCc1ccccc1", "EC50": "47.3 µM"}
{"structure_string": "CCCCCCCCCCCCCCCCOCCCOP(=O)(O)OC[C@@]1(C#N)O[C@@H](c2ccc3c(N)ncnn23)[C@H](O)[C@@H]1O", "EC50": "> 44.4 µM"}

====

- System: RSV strain A2
- protocol_details: RSV HEp-2 EC50 (infectious cytopathic cell protection assay)
- Assay type: cell-based
- reported_conditions: human respiratory syncytial virus, HEp-2, 96 h, HEp-2 cells, RSV A2, 4 days; read-out: RSV HEp-2 EC50
pEC50: −log10 of the molar value.
recorded_metric: pEC50

{"compound": "C[C@H](N[P@@](=O)(OC[C@@]1(C#N)O[C@@H](c2ccc3c(N)ncnn23)[C@H](O)[C@@H]1O)Oc1ccccc1)C(=O)O[C@H]1CC[C@H](C(F)(F)F)CC1 (single isomer, unassigned) [Example 17]", "inequality_symbol": "=", "measurement": 6.51}
{"compound": "CCC(CC)OC(=O)[C@H](CC)NP(=O)(OC[C@@]1(C#N)O[C@@H](c2ccc3c(N)ncnn23)[C@H](O)[C@@H]1O)Oc1ccccc1 (mixture of isomers) [Example 115]", "inequality_symbol": "=", "measurement": 5.06}
{"compound": "C[C@H](NP(=O)(OC[C@@]1(C#N)O[C@@H](c2ccc3c(N)ncnn23)[C@H](O)[C@@H]1O)Oc1ccccc1)C(=O)OC1CCCC(C)(C)C1 (mixture of isomers) [Example 154]", "inequality_symbol": "=", "measurement": 5.57}
{"compound": "CC(C)OC(=O)[C@H](C)N[P@](=O)(OC[C@@]1(C#N)O[C@@H](c2ccc3c(N)ncnn23)[C@H](OC(=O)C(C)C)[C@@H]1O)Oc1ccccc1 (single isomer, unassigned) [Example 240]", "inequality_symbol": "=", "measurement": 6.78}
{"compound": "CCC(CC)OC(=O)[C@H](C)NP(=O)(OC[C@@]1(C#N)O[C@@H](c2ccc3c(N)ncnn23)[C@H](O)[C@@H]1O)Oc1ccccc1 (stereo partly shown) [Example 101]", "inequality_symbol": "=", "measurement": 5.76}
{"compound": "CCC(CC)COC(=O)[C@H](CC)NP(=O)(OC[C@@]1(C#N)O[C@@H](c2ccc3c(N)ncnn23)[C@H](O)[C@@H]1O)Oc1ccccc1 (mixture of isomers) [Example 88]", "inequality_symbol": "=", "measurement": 6.47}
{"compound": "C[C@H](N[P@](=O)(OC[C@@]1(C#N)O[C@@H](c2ccc3c(N)ncnn23)[C@H](O)[C@@H]1O)Oc1ccccc1)C(=O)O[C@H]1CC[C@H](C(C)(C)C)CC1 (single isomer, unassigned) [Example 22]", "inequality_symbol": "=", "measurement": 6.99}
{"compound": "CCC(C)(C)COC(=O)[C@H](C)NP(=O)(OC[C@@]1(C#N)O[C@@H](c2ccc3c(N)ncnn23)[C@H](O)[C@@H]1O)Oc1ccccc1 (stereo partly shown) [Example 254]", "inequality_symbol": "=", "measurement": 7.77}
{"compound": "CCC(CC)COC(=O)[C@@H](NP(=O)(OC[C@@]1(C#N)O[C@@H](c2ccc3c(N)ncnn23)[C@H](O)[C@@H]1O)Oc1ccccc1)C1CCCCC1 (stereo partly shown) [Example 116]", "inequality_symbol": "<", "measurement": 4.00}
{"compound": "CC(C)[C@H](NP(=O)(OC[C@@]1(C#N)O[C@@H](c2ccc3c(N)ncnn23)[C@H](O)[C@@H]1O)Oc1ccccc1)C(=O)OC1CCCCC1 (stereo partly shown) [Example 98]", "inequality_symbol": "<", "measurement": 4.30}
